- target: T1, BS69CC-MYND (BS69 amino acid 480–602, CC-MYND domain) (Homo sapiens, UniProt Q15326)
- T1 construct: The BS69 CC-MYND domain (amino acids 480–602) was amplified from pCI-BS69; GST (N, cleaved yes); 6xHis (N, cleaved yes); made in house; host or cells: E. coli Rosetta 2 (DE3) pLysS
- T1 sequence (Q15326 480-602): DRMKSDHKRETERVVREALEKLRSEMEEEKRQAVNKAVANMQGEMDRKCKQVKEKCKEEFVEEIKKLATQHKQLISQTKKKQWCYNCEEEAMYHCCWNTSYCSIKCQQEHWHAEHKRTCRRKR
- measurement notes: Isothermal titration calorimetry (ITC) of EBNA2 peptides and polypeptides binding to BS69CC-MYND
- protocol conditions: 29 injections, mean ± SD of 3 independent experiments
- Excerpt: We hypothesised that the impaired gene activation and growth maintenance properties of type 2 EBNA2 may be the result of increased binding to BS69 as a result of the aspartate to serine amino acid difference adjacent to BS69 binding motif 2. […] We used isothermal titration calorimetry (ITC) to determine the affinity of peptide binding to the C-terminal region of BS69 (amino acid 480–602) comprising the CC-MYND domain that we expressed and purified from E.coli (Fig 1B and 1C). […]
Measured n value, event 1, two-site model, listed per entry for reference.
Respond using a number only.

These recorded examples may help you get a feel for the data.
molecule | result value
T2 EBNA2_348-422: type 2 EBNA2 polypeptide containing motif 1, 2 and 3, amino acids 348–422 (protein, left off: His6, N-terminal, cleaved) SMPQLSPVVSLHQGQGPENSPTPGPSTAGPVCRVTPSATPDISPIHEPESSDSEEPPFLFPSDWYPPTLEPAELD | 0.23
EBNA2_348-422 SD + m3 mt: type 2 EBNA2 polypeptide 348–422 containing both the SD and motif 3 (ATAEA) mutations (protein, left off: His6, N-terminal, cleaved, type 2 EBNA2 polypeptide 348–422 containing both the SD and motif 3 (ATAEA) mutations) SMPQLSPVVSLHQGQGPENSPTPGPSTAGPVCRVTPSATPDISPIHEPESSDSEEPPFLFPDDWYPATAEAAELD | 0.20
T2 EBNA2_348-422 SD: type 2 EBNA2 polypeptide 348–422 with an S409D mutation (protein, left off: His6, N-terminal, cleaved, type 2 EBNA2 polypeptide 348–422 with an S409D mutation) SMPQLSPVVSLHQGQGPENSPTPGPSTAGPVCRVTPSATPDISPIHEPESSDSEEPPFLFPDDWYPPTLEPAELD | 0.22

Would you kindly look at the next entry?
Read off the recorded n value, event 1, two-site model for EBNA2_348-422 SD + m3 T1: type 2 EBNA2 polypeptide 348–422 containing both the SD and motif 3 (PSIDP) mutations (protein, left off: His6, N-terminal, cleaved, type 2 EBNA2 polypeptide 348–422 containing both the SD and motif 3 (PSIDP) mutations) SMPQLSPVVSLHQGQGPENSPTPGPSTAGPVCRVTPSATPDISPIHEPESSDSEEPPFLFPDDWYPPSIDPAELD
0.20
